Source listed as paper PMC10644391.

# protocol.description: pKa by potentiometric titration (Sirius T3)
# Type: physicochemical
# assay.setup: potentiometric titrations, means ± SD of three titrations
endpoint.name: pKa
No unit in the answer, only the number.

Could you tell me which pKa is on file for O=Cc1c(O)ccc2cc(-c3ccsc3)ccc12 ?
7.75

Could you tell me which pKa is on file for O=Cc1c(O)ccc2cc(Cl)ccc12 ?
7.3

Could you tell me which pKa is on file for COc1ccc2c(C=O)c(O)ccc2c1 [Compound 2, 2-hydroxy-6-methoxy-1-naphthaldehyde] ?
7.42

Could you tell me which pKa is on file for C=CCc1ccc2c(C=O)c(O)ccc2c1 ?
7.17

Could you tell me which pKa is on file for CC#Cc1ccc2c(C=O)c(O)ccc2c1 ?
7.02

Could you tell me which pKa is on file for O=Cc1c(O)ccc2cc(OC(F)F)ccc12 ?
6.95

Could you tell me which pKa is on file for O=Cc1c(O)ccc2cc(-c3ccccc3)ccc12 ?
6.76

Could you tell me which pKa is on file for O=Cc1c(O)ccc2cc(-c3c[nH]nn3)ccc12 ?
7.38

Could you tell me which pKa is on file for O=Cc1c(O)ccc2ccccc12 [Compound 1, 2-hydroxy-1-naphthaldehyde] ?
7.34

Could you tell me which pKa is on file for C#Cc1ccc2c(C=O)c(O)ccc2c1 ?
6.81

Could you tell me which pKa is on file for O=Cc1c(O)ccc2cc(-c3ccco3)ccc12 ?
8.08

Could you tell me which pKa is on file for O=Cc1c(O)ccc2ccc(-c3ccco3)cc12 ?
7.5

Could you tell me which pKa is on file for C=CCOc1ccc2c(C=O)c(O)ccc2c1 ?
7.34
